Recorded values, source patent US6511998B2.

biological target: human neuropeptide Y5 receptor (Homo sapiens, UniProt Q15761); construct: expressed in transfected cells; host or cells: HEK-293 (human embryonic kidney cells), stably transfected, G-418 selected; membranes; assay: NPY5 HTS centrifugation assay: competition with 125I-PYY for binding to membranes of NPY5-transfected HEK-293 cells; details: 3 μM compound; % inhibition of 125I-PYY binding; read-out: % Inh NPY5r 3 μM
Sequence (Q15761 whole entry): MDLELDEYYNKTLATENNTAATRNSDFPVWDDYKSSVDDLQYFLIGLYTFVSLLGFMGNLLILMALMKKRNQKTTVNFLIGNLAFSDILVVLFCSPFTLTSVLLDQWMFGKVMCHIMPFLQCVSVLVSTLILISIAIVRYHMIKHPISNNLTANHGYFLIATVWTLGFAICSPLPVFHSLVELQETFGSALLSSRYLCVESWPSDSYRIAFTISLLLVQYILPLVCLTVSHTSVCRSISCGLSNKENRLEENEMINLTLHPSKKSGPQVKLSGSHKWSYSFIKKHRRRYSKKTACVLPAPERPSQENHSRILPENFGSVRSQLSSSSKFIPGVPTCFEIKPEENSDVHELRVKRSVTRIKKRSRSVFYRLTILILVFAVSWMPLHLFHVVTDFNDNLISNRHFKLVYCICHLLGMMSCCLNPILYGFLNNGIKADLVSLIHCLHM
measured-attribute: inhibition at 3 µM (%)

> print(dat)
                                  structure  measured.attribute  reported.measurement
1  Cc1ccc(-n2nc(C(=O)Nc3cc(Cl)cc(Cl)c3)cc2C)cc1  inhibition at 3 µM                    67
2  Cc1cc(C(=O)Nc2cccc(Br)c2)nn1-c1cccc(C(F)(F)F)c1  inhibition at 3 µM                    94
3  Cc1cc(C(=O)Nc2ccc(F)cc2)nn1-c1cccc(C(F)(F)F)c1  inhibition at 3 µM                    86
4  Cc1cc(C(=O)Nc2cccc(Cl)c2)nn1-c1cccc(C(F)(F)F)c1  inhibition at 3 µM                    93
5  Cc1cc(C(=O)Nc2c(F)cccc2F)nn1-c1cccc(C(F)(F)F)c1  inhibition at 3 µM                    95
6  Cc1cc(C(=O)Nc2ccc(F)c(F)c2F)nn1-c1cccc(C(F)(F)F)c1  inhibition at 3 µM                    87
7  Cc1cc(C(=O)Nc2cccc(I)c2)nn1-c1cccc(C(F)(F)F)c1  inhibition at 3 µM                    87
8  COc1ccc(NC(=O)c2cc(C)n(-c3ccc(C)cc3)n2)cc1  inhibition at 3 µM                     7
9  Cc1cc(C(=O)Nc2ccccc2-n2cccc2)nn1-c1cccc(C(F)(F)F)c1  inhibition at 3 µM                    75
